Reference for the values: PubChem BioAssay

Test: drug combination growth inhibition, ovarian cancer – cell-based, oncology-focused library, rucaparib conditional, profiling panel (AID 1508598)
Conditions: patient-derived ovarian cancer cells, CellTiter-Glo viability, 144 h; at 1.25 µM; OCI-P5x cells; without rucaparib; hits give low values
So basically, if viability comes in under 90% it's True, and if it's 90% or more it's False.

INSERT INTO assay_data (molecule, classification) VALUES
  ('Nc1cccc2c1C(=O)N(C1CCC(=O)NC1=O)C2=O (centres undefined)', 'False'),
  ('CC[C@@H]1C(=O)N(C)c2cnc(Nc3ccc(C(=O)NC4CCN(C)CC4)cc3OC)nc2N1C1CCCC1', 'True'),
  ('CCCS(=O)(=O)Nc1ccc(F)c(C(=O)c2c[nH]c3ncc(-c4ccc(Cl)cc4)cc23)c1F', 'True'),
  ('Cc1cc2c(F)c(Oc3ncnn4cc(OC[C@@H](C)O)c(C)c34)ccc2[nH]1', 'False'),
  ('CN1CCCN(C(=O)c2cccc(-c3ccc(/C=C4/C(=O)Nc5ccc(Cl)cc54)o3)c2)CC1', 'False'),
  ('CN1CCN(c2cccc(Nc3nc4c(-c5ccc(S(C)(=O)=O)cc5)cccn4n3)c2)CC1', 'False'),
  ('Cc1c(NC(=O)OC[C@@H]2COCCN2)cn2ncnc(Nc3ccc4c(cnn4Cc4cccc(F)c4)c3)c12', 'False'),
  ('Nc1nc(Nc2ccc(S(N)(=O)=O)cc2)nn1C(=O)c1c(F)cccc1F', 'True'),
  ('COc1cc2nccc(Oc3ccc(NC(=O)Nc4cc(C)on4)c(Cl)c3)c2cc1OC', 'True'),
  ('CN(c1ncccc1CNc1nc(Nc2ccc3c(c2)CC(=O)N3)ncc1C(F)(F)F)S(C)(=O)=O', 'True'),
  ('CC1COC2(CCN(c3nc(=O)c4cc(C(F)(F)F)cc([N+](=O)[O-])c4s3)CC2)O1 (centres undefined)', 'False'),
  ('Cn1c(=O)c(F)c(Nc2ccc(I)cc2F)c2c(=O)n(C[C@@H](O)CO)cnc21', 'True'),
  ('COc1ccc(-c2ccc3c(N4CCOC[C@@H]4C)nc(N4CCOC[C@@H]4C)nc3n2)cc1CO', 'True'),
  ('COc1cc(OC)c(/C=C/S(=O)(=O)Cc2ccc(OC)c(NCC(=O)O)c2)c(OC)c1', 'True'),
  ('Cn1cc(-c2ccc3c(c2)CCN3C(=O)Cc2cccc(C(F)(F)F)c2)c2c(N)ncnc21', 'False'),
  ('CN(C)N=Nc1nc[nH]c1C(N)=O', 'False'),
  ('CCN1CCN(Cc2ccc(-c3cc4c(N[C@H](C)c5ccccc5)ncnc4[nH]3)cc2)CC1', 'False'),
  ('CCN(CCO)CCCOc1ccc2c(Nc3cc(CC(=O)Nc4cccc(F)c4)[nH]n3)ncnc2c1', 'True');
